# System: CAL-85-1
# method: normalised response (% of control), CellTiter-Glo; higher = more viable cells (100 = DMSO, 0 = benzethonium chloride kill control)
# condition details: incubation time: 72 h
measurement label: normalised response (%)
Give your result in % as a bare value.

# input API: value(readout=normalised response, system=CAL-85-1) for record Cc1nc(Nc2ncc(C(=O)Nc3c(C)cccc3Cl)s2)cc(N2CCN(CCO)CC2)n1 [Dasatinib] (1 nM)
# output 101

# input API: value(readout=normalised response, system=CAL-85-1) for record Cc1cccc(-c2nn3c(c2-c2ccnc4ccc(C(N)=O)cc24)CCC3)n1 [Galunisertib] (1 nM)
# output 99.5

# input API: value(readout=normalised response, system=CAL-85-1) for record O=C1c2c(O)ccc(O)c2C(=O)c2c(NCCNCCO)ccc(NCCNCCO)c21 [Mitoxantrone] (1 nM)
# output 100

# input API: value(readout=normalised response, system=CAL-85-1) for record C[C@]12O[C@H](C[C@]1(O)CO)n1c3ccccc3c3c4c(c5c6ccccc6n2c5c31)CNC4=O [Lestaurtinib] (0.1 nM)
# output 103

# input API: value(readout=normalised response, system=CAL-85-1) for record CCCCC/C=C/C=C1/C(=O)C=C[C@@H]1C/C=C\CCCC(=O)O [15D-PGJ2] (0.8 nM)
# output 94.7

# input API: value(readout=normalised response, system=CAL-85-1) for record CC/C(=C(\c1ccc(O)cc1)c1ccc(OCCN(C)C)cc1)c1ccccc1 [4-hydroxytamoxifen] (1 nM)
# output 100

# input API: value(readout=normalised response, system=CAL-85-1) for record Cn1cc(CNCC2CCN(c3ncc(C(=O)NO)cn3)CC2)c2ccccc21 [Quisinostat] (0.1 nM)
# output 107

# input API: value(readout=normalised response, system=CAL-85-1) for record COc1nc(N)nc2c1ncn2[C@@H]1O[C@H](CO)[C@@H](O)[C@@H]1O [Nelarabine] (1 nM)
# output 94.9

# input API: value(readout=normalised response, system=CAL-85-1) for record c1cc(CN2CCCNCCNCCCNCC2)ccc1CN1CCCNCCNCCCNCC1 [Plerixafor] (1000 nM)
# output 96.1

# input API: value(readout=normalised response, system=CAL-85-1) for record Cc1ccc(Nc2nccc(N(C)c3ccc4c(C)n(C)nc4c3)n2)cc1S(N)(=O)=O [Pazopanib] (1000 nM)
# output 101

# input API: value(readout=normalised response, system=CAL-85-1) for record c1cc(CN2CCCNCCNCCCNCC2)ccc1CN1CCCNCCNCCCNCC1 [Plerixafor] (10 nM)
# output 93.1

# input API: value(readout=normalised response, system=CAL-85-1) for record C[C@]12C=CC(=O)C=C1CC[C@@H]1[C@@H]2[C@@H](O)C[C@@]2(C)[C@H]1CC[C@]2(O)C(=O)CO [Prednisolone] (1000 nM)
# output 113

# input API: value(readout=normalised response, system=CAL-85-1) for record CCCCC/C=C/C=C1/C(=O)C=C[C@@H]1C/C=C\CCCC(=O)O [15D-PGJ2] (0.08 nM)
# output 95.3

# input API: value(readout=normalised response, system=CAL-85-1) for record Cc1nc(Nc2ncc(C(=O)Nc3c(C)cccc3Cl)s2)cc(N2CCN(CCO)CC2)n1 [Dasatinib] (100 nM)
# output 61.8

# input API: value(readout=normalised response, system=CAL-85-1) for record COc1cc(CCc2cc(NC(=O)c3ccc(N4CC(C)NC(C)C4)cc3)n[nH]2)cc(OC)c1 (configuration not stated) [AZD4547] (100 nM)
# output 96.2

# input API: value(readout=normalised response, system=CAL-85-1) for record Cc1c(CN2CCN(C(=O)[C@H](C)O)CC2)sc2c(N3CCOCC3)nc(-c3cnc(N)nc3)nc12 [GDC-0980] (1000 nM)
# output 37.5

# input API: value(readout=normalised response, system=CAL-85-1) for record CC(C)N(CCCNC(=O)Nc1ccc(C(C)(C)C)cc1)C[C@H]1O[C@@H](n2cc(Br)c3c(N)ncnc32)[C@H](O)[C@@H]1O [SGC0946] (10 nM)
# output 94

# input API: value(readout=normalised response, system=CAL-85-1) for record Nc1cccc2c1CN(C1CCC(=O)NC1=O)C2=O (configuration not stated) [Lenalidomide] (1000 nM)
# output 108

# input API: value(readout=normalised response, system=CAL-85-1) for record Cc1nc(Nc2ncc(C(=O)Nc3c(C)cccc3Cl)s2)cc(N2CCN(CCO)CC2)n1 [Dasatinib] (0.1 nM)
# output 94.2

# input API: value(readout=normalised response, system=CAL-85-1) for record O=C1c2c(O)ccc(O)c2C(=O)c2c(NCCNCCO)ccc(NCCNCCO)c21 [Mitoxantrone] (0.1 nM)
# output 101

# input API: value(readout=normalised response, system=CAL-85-1) for record Cc1cccc(-c2nn3c(c2-c2ccnc4ccc(C(N)=O)cc24)CCC3)n1 [Galunisertib] (0.1 nM)
# output 98.1

# input API: value(readout=normalised response, system=CAL-85-1) for record Nc1ccccc1NC(=O)c1ccc(CNc2nccc(-c3cccnc3)n2)cc1 [Mocetinostat] (1000 nM)
# output 87.9

----------
# Tested on: SK-BR-3
# method: normalised response (% of control), CellTiter-Glo; higher = more viable cells (100 = DMSO, 0 = benzethonium chloride kill control)
# condition details: incubation time: 72 h
measurement label: normalised response (%)
Give your result in % as a bare value.

# input API: value(readout=normalised response, system=SK-BR-3) for record COc1ccc(-c2cc3c(C)nc(N)nc3n([C@H]3CC[C@H](OCCO)CC3)c2=O)cn1 (10000 nM)
# output 18.6

# input API: value(readout=normalised response, system=SK-BR-3) for record COc1cc(CCc2cc(NC(=O)c3ccc(N4CC(C)NC(C)C4)cc3)n[nH]2)cc(OC)c1 (stereo not drawn) [AZD4547] (1000 nM)
# output 89.6

# input API: value(readout=normalised response, system=SK-BR-3) for record Cc1ccc(Nc2nccc(N(C)c3ccc4c(C)n(C)nc4c3)n2)cc1S(N)(=O)=O [Pazopanib] (10000 nM)
# output 105

----------
# System: HDQ-P1
# method: normalised response (% of control), CellTiter-Glo; higher = more viable cells (100 = DMSO, 0 = benzethonium chloride kill control)
# condition details: incubation time: 72 h
measurement label: normalised response (%)
Give your result in % as a bare value.

# input What value of normalised response has been reported for the following molecule? O=C(CCBr)N1CCN(C(=O)CCBr)CC1 [Pipobroman] (1 nM)
# output 104

# input What value of normalised response has been reported for the following molecule? COc1nc(N)nc2c1ncn2[C@@H]1O[C@H](CO)[C@@H](O)[C@@H]1O [Nelarabine] (1000 nM)
# output 96.7

# input What value of normalised response has been reported for the following molecule? Cc1nc(Nc2ncc(C(=O)Nc3c(C)cccc3Cl)s2)cc(N2CCN(CCO)CC2)n1 [Dasatinib] (1 nM)
# output 93.5

# input What value of normalised response has been reported for the following molecule? Cc1c(CN2CCN(C(=O)[C@H](C)O)CC2)sc2c(N3CCOCC3)nc(-c3cnc(N)nc3)nc12 [GDC-0980] (1 nM)
# output 103

----------
Kindly state normalised response for each of the entries shown.
# Test system: MDA-MB-231
# method: normalised response (% of control), CellTox Green; higher = less cell death (100 = DMSO, 0 = benzethonium chloride kill control)
# condition details: incubation time: 72 h
Give your result in % as a bare value.

# input What value of normalised response has been reported for the following compound? Cc1cccc(-c2nn3c(c2-c2ccnc4ccc(C(N)=O)cc24)CCC3)n1 [Galunisertib] (10 nM)
# output 116

# input What value of normalised response has been reported for the following compound? CC(C)N(CCCNC(=O)Nc1ccc(C(C)(C)C)cc1)C[C@H]1O[C@@H](n2cc(Br)c3c(N)ncnc32)[C@H](O)[C@@H]1O [SGC0946] (1000 nM)
# output 101

# input What value of normalised response has been reported for the following compound? c1cc(CN2CCCNCCNCCCNCC2)ccc1CN1CCCNCCNCCCNCC1 [Plerixafor] (1000 nM)
# output 82.7

# input What value of normalised response has been reported for the following compound? Nc1ccccc1NC(=O)c1ccc(CNc2nccc(-c3cccnc3)n2)cc1 [Mocetinostat] (1000 nM)
# output 81.3

# input What value of normalised response has been reported for the following compound? C[C@]12C=CC(=O)C=C1CC[C@@H]1[C@@H]2[C@@H](O)C[C@@]2(C)[C@H]1CC[C@]2(O)C(=O)CO [Prednisolone] (10000 nM)
# output 150

# input What value of normalised response has been reported for the following compound? Cc1nc(Nc2ncc(C(=O)Nc3c(C)cccc3Cl)s2)cc(N2CCN(CCO)CC2)n1 [Dasatinib] (100 nM)
# output 84.3

# input What value of normalised response has been reported for the following compound? CCN(CC)CCNC(=O)c1c(C)[nH]c(/C=C2\C(=O)Nc3ccc(F)cc32)c1C [Sunitinib] (100 nM)
# output 123

# input What value of normalised response has been reported for the following compound? O=C(Nc1c[nH]nc1-c1nc2ccc(CN3CCOCC3)cc2[nH]1)NC1CC1 [AT9283] (10 nM)
# output 98.2

# input What value of normalised response has been reported for the following compound? Cc1c(Cn2c(C)nc3c(C(=O)O)cc(N4CCOCC4)cc32)cccc1C(F)(F)F (1000 nM)
# output 107

# input What value of normalised response has been reported for the following compound? CC(=O)OC[C@H]1O[C@@H]([S-])[C@H](OC(C)=O)[C@@H](OC(C)=O)[C@@H]1OC(C)=O.CCP(CC)CC.[Au+] [Auranofin] (250 nM)
# output 125

# input What value of normalised response has been reported for the following compound? CCC/C=C/C=C/C(=O)O[C@H]1/C(=C/C(=O)OC)C[C@H]2C[C@H]([C@@H](C)O)OC(=O)C[C@H](O)C[C@@H]3C[C@H](OC(C)=O)C(C)(C)[C@](O)(C[C@@H]4C/C(=C/C(=O)OC)C[C@H](/C=C/C(C)(C)[C@]1(O)O2)O4)O3 [Bryostatin 1] (100 nM)
# output 120

# input What value of normalised response has been reported for the following compound? Nc1ccccc1NC(=O)c1ccc(CNc2nccc(-c3cccnc3)n2)cc1 [Mocetinostat] (100 nM)
# output 89.2

# input What value of normalised response has been reported for the following compound? CC(C)N(CCCNC(=O)Nc1ccc(C(C)(C)C)cc1)C[C@H]1O[C@@H](n2cc(Br)c3c(N)ncnc32)[C@H](O)[C@@H]1O [SGC0946] (100 nM)
# output 73.8

# input What value of normalised response has been reported for the following compound? O=C(CCBr)N1CCN(C(=O)CCBr)CC1 [Pipobroman] (1000 nM)
# output 96.7

# input What value of normalised response has been reported for the following compound? Cn1cc(CNCC2CCN(c3ncc(C(=O)NO)cn3)CC2)c2ccccc21 [Quisinostat] (100 nM)
# output 29.6

# input What value of normalised response has been reported for the following compound? Nc1cccc2c1CN(C1CCC(=O)NC1=O)C2=O (centres undefined) [Lenalidomide] (100 nM)
# output 105

# input What value of normalised response has been reported for the following compound? CC/C(=C(\c1ccc(O)cc1)c1ccc(OCCN(C)C)cc1)c1ccccc1 [4-hydroxytamoxifen] (10000 nM)
# output 7.14

# input What value of normalised response has been reported for the following compound? CCN(CC)CCNC(=O)c1c(C)[nH]c(/C=C2\C(=O)Nc3ccc(F)cc32)c1C [Sunitinib] (10 nM)
# output 104

# input What value of normalised response has been reported for the following compound? c1cc(CN2CCCNCCNCCCNCC2)ccc1CN1CCCNCCNCCCNCC1 [Plerixafor] (100 nM)
# output 96.5
